system: Coagulation factor X (Homo sapiens, UniProt P00742)
Sequence (P00742 41-179 limits assumed): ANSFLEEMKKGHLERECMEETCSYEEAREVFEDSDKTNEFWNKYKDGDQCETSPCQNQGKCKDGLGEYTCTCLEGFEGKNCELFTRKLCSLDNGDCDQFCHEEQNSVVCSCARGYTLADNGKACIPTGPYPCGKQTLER
Sequence (P00742 235-488 limits assumed): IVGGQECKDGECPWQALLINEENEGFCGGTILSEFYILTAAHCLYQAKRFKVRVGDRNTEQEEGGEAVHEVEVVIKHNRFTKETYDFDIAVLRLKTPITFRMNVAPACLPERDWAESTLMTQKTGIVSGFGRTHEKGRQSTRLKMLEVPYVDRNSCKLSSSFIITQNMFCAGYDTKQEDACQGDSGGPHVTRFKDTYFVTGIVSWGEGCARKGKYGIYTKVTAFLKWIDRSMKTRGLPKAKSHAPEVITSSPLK
Quick reference for Ki among some compounds

{"columns": ["compound", "system", "Ki [µM]"],
 "data": [
  ["N=C(N)c1cccc([C@@H]2CN(Cc3ccc(-c4ccccc4S(N)(=O)=O)cc3)C[C@@H]2C(=O)O)c1", "Coagulation factor X (Homo sapiens, UniProt P00742)", 0.46],
  ["CC(=O)[C@@H]1CN(Cc2ccc(-c3ccccc3S(N)(=O)=O)cc2)C[C@H]1c1cccc(C(=N)N)c1", "Coagulation factor X (Homo sapiens, UniProt P00742)", 0.036],
  ["COC(=O)[C@@H]1CN(Cc2ccc(-c3ccccc3S(N)(=O)=O)cc2)C[C@H]1c1cccc(C(=N)N)c1 (stereo in doubt; 15)", "Coagulation factor X (Homo sapiens, UniProt P00742)", 0.0034],
  ["COC(=O)[C@@H]1CN(Cc2ccc(-c3ccccc3S(N)(=O)=O)cc2)O[C@H]1c1cccc(C(=N)N)c1", "Coagulation factor X (Homo sapiens, UniProt P00742)", 0.0031]
]}

----------
system: Serine protease 1 (Homo sapiens, UniProt P07477)
Sequence (P07477 whole entry): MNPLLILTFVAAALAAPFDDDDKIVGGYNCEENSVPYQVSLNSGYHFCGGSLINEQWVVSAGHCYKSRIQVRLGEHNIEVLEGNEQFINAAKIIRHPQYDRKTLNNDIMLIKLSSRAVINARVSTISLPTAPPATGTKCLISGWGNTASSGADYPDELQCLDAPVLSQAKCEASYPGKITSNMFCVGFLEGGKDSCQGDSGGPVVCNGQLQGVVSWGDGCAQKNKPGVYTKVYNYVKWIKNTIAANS
pKi: −log10 of the molar value.
Short version: pKi at least 7 is 1.0, less is 0.0.

{"columns": ["compound", "system", "discrete label"],
 "data": [
  ["COC(=O)[C@H]1CN(Cc2ccc(-c3ccccc3S(N)(=O)=O)cc2)C[C@@H]1c1cccc(C(=N)N)c1", "Serine protease 1 (Homo sapiens, UniProt P07477)", 0.0],
  ["CCOC(=O)[C@]1(C)CN(Cc2ccc(-c3ccccc3S(N)(=O)=O)cc2)C[C@H]1c1cccc(C(=N)N)c1", "Serine protease 1 (Homo sapiens, UniProt P07477)", 0.0],
  ["COC(=O)[C@@H]1CN(Cc2ccc(-c3ccccc3S(N)(=O)=O)cc2)C[C@H]1c1cccc(C(=N)N)c1 (stereo in doubt; 15)", "Serine protease 1 (Homo sapiens, UniProt P07477)", 1.0],
  ["N=C(N)c1cccc([C@@H]2CN(Cc3ccc(-c4ccccc4S(N)(=O)=O)cc3)C[C@H]2C(N)=O)c1", "Serine protease 1 (Homo sapiens, UniProt P07477)", 0.0]
]}

----------
Quick reference for clearance among some compounds
procedure summary: Clearance rate in rabbits
Format: ADME, organism-based, Oryctolagus cuniculus
run parameters: rabbit, in vivo

{"columns": ["molecular string", "clearance"],
 "data": [
  ["CC(C)OC(=O)[C@@H]1CN(Cc2ccc(-c3ccccc3S(N)(=O)=O)cc2)O[C@H]1c1cccc(C(=N)N)c1.O=C(O)C(F)(F)F.O=C(O)C(F)(F)F", "> 33.3 mL/min/kg"],
  ["CC(C)OC(=O)[C@@H]1CN(Cc2ccc(-c3ccccc3S(N)(=O)=O)cc2)C[C@H]1c1cccc(C(=N)N)c1.O=C(O)C(F)(F)F.O=C(O)C(F)(F)F", "> 33.3 mL/min/kg"]
]}

----------
Observed Ki values for Serine protease 1 (Homo sapiens) are listed in what follows.

{"columns": ["molecule", "Ki"],
 "data": [
  ["CC(C)OC(=O)[C@@H]1CN(Cc2ccc(-c3ccccc3S(N)(=O)=O)cc2)O[C@H]1c1cccc(C(=N)N)c1.O=C(O)C(F)(F)F.O=C(O)C(F)(F)F", "93 nM"],
  ["COC(=O)[C@@H]1CN(Cc2ccc(-c3ccccc3S(N)(=O)=O)cc2)O[C@H]1c1cccc(C(=N)N)c1", "69 nM"],
  ["CC(C)OC(=O)[C@@H]1CN(Cc2ccc(-c3ccccc3S(N)(=O)=O)cc2)C[C@H]1c1cccc(C(=N)N)c1.O=C(O)C(F)(F)F.O=C(O)C(F)(F)F", "98 nM"],
  ["COC(=O)[C@@H]1CN(Cc2ccc(-c3ccccc3S(N)(=O)=O)cc2)C[C@H]1c1cccc(C(=N)N)c1.O=C(O)C(F)(F)F.O=C(O)C(F)(F)F (stereo in doubt; 10)", "63 nM"]
]}
